Listed next: entries and their corresponding hNav1.7: Reduction in current at 20 mV (normalized data) Delta Ratio.
# SYSTEM: human Nav1.7 (Homo sapiens)
# Construct: expressed in transfected cells
# Sequence (Q15858 whole entry): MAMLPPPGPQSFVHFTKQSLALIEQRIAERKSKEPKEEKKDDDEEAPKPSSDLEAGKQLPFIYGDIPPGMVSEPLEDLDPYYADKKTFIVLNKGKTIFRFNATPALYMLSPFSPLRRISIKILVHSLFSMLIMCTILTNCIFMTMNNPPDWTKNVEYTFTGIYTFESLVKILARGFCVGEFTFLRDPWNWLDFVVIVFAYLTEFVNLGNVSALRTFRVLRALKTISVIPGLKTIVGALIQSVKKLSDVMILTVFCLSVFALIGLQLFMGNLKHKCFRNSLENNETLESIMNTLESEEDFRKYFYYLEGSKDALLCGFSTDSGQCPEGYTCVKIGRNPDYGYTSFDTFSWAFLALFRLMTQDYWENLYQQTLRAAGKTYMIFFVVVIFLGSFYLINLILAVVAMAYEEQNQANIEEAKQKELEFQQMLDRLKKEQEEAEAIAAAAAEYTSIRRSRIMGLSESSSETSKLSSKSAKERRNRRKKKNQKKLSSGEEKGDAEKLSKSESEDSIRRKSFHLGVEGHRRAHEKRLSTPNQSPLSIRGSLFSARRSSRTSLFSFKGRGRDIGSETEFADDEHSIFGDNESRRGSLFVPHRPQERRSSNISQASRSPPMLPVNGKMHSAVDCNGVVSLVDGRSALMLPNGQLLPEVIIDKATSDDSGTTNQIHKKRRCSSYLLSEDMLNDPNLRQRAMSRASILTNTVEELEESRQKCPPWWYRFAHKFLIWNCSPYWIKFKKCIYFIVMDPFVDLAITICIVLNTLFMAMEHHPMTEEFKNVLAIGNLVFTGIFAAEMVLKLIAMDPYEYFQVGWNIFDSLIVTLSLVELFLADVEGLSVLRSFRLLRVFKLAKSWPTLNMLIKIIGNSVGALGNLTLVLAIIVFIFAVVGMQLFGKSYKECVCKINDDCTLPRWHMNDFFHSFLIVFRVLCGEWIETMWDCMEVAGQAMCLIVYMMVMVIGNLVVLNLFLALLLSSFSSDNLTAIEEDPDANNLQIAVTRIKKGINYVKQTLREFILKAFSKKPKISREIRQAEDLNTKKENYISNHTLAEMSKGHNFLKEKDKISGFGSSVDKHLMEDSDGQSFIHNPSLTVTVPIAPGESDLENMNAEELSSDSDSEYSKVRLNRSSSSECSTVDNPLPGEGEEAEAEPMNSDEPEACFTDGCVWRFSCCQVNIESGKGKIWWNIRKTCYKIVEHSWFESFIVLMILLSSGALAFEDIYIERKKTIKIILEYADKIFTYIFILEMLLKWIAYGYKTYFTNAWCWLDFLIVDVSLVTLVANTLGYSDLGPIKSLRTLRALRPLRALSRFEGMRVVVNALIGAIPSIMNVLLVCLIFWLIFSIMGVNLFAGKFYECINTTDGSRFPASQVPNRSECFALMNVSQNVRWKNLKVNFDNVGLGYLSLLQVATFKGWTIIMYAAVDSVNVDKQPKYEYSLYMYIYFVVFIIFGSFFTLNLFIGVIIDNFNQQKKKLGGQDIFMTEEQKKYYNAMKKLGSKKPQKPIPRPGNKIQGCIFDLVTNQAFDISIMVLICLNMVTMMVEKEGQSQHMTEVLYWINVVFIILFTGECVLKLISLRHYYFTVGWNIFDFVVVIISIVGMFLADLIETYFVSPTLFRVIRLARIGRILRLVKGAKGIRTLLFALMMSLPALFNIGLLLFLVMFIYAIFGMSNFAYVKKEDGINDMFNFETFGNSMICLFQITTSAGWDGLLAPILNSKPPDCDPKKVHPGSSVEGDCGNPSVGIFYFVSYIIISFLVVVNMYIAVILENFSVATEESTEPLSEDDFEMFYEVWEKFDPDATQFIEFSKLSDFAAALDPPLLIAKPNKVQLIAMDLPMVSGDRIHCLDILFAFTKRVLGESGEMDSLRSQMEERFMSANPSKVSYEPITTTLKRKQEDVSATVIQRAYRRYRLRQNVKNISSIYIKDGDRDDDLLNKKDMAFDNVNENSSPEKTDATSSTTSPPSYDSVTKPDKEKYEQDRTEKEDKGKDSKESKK
# Sequence (Q07699 19-218 partner): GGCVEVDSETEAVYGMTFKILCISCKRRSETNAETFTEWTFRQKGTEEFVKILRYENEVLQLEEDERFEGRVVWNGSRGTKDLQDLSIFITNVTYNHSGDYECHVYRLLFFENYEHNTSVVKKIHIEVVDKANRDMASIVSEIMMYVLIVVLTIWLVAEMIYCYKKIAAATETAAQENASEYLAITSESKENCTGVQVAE
# ASSAY_METHOD_TEXT: Assessment of Nav1.7 activity on PatchXpress (voltage dependence / slow inactivation parameters)
# Type: cell-based
# EXPERIMENTAL_SETUP: compound at 10 μM; before/after 30 sec conditioning pulse at 20 mV; relative to 0.2% DMSO vehicle control

Sample answers from the record:
# CHEMICAL_SMILES, SYSTEM, REPORTED_MEASUREMENT
rows = [
    ("O=C(NCC12CC3CC(CC(C3)C1)C2)[C@H]1CCCN1", "human Nav1.7 (Homo sapiens)", "−0.11"),
    ("CC12CC3CC(C)(C1)CC(NC(=O)[C@H]1CCCN1)(C3)C2", "human Nav1.7 (Homo sapiens)", "−0.12"),
    ("N[C@H](Cc1cccc(F)c1)c1nc2cc(C(F)(F)F)cc(C(F)(F)F)c2[nH]1", "human Nav1.7 (Homo sapiens)", "−0.26"),
]

Item COC[C@@H](N)C(=O)NCC(=O)NCc1cc(C(F)(F)F)cc(C(F)(F)F)c1 has what recorded hNav1.7: Reduction in current at 20 mV (normalized data) Delta Ratio?
−0.03

Item CC(=O)N1CCC(NC(=O)Nc2ccc(OC(F)(F)F)cc2)CC1 has what recorded hNav1.7: Reduction in current at 20 mV (normalized data) Delta Ratio?
0.02

Item N[C@H](Cc1cccc(C(F)(F)F)c1)C(=O)NCc1nc2c(C(F)(F)F)cc(C(F)(F)F)cc2[nH]1 has what recorded hNav1.7: Reduction in current at 20 mV (normalized data) Delta Ratio?
−0.06

Item O=C(NC12CC3CC(CC(C3)C1)C2)[C@@H]1CCCN1 has what recorded hNav1.7: Reduction in current at 20 mV (normalized data) Delta Ratio?
−0.07

Item O=C1CNCCN1CCCc1nc2cc(C(F)(F)F)cc(C(F)(F)F)c2[nH]1 has what recorded hNav1.7: Reduction in current at 20 mV (normalized data) Delta Ratio?
−0.09

Item O=C(Cc1nc2cc(F)cc(F)c2[nH]1)NC1CCNCC1 has what recorded hNav1.7: Reduction in current at 20 mV (normalized data) Delta Ratio?
−0.01
